testDetails: Cytotoxicity, cell viability by tetrazolium dye assay (XTT assay)
Assay type: cell-based
experimentalSetup: human, HeLa cells, 3 µM, read-out: Viability of treated HeLa cells relative to control cells
observedProperty: viability at 3 days, 3 µM (%)
One number for each entry, in %.

Would you please look over these solved cases?
O=C(O)c1nc2ccccc2c2[nH]c3c(I)cccc3c12 [KuFal194 (5), reference compound]    75
N#Cc1c(-c2ccccc2)[nH]c2c(Cl)cccc12    98

Please go through the list and note viability at 3 days, 3 µM for each compound.
1. N#Cc1c(-c2ccccc2)[nH]c2c(I)cccc12
2. N#Cc1cn(Cc2ccccc2)c2c(Br)cccc12 [Compound 13b]
3. N#Cc1c(C2CCCC2)[nH]c2c(I)cccc12

[97, 94, 100]
